Hey, just so you know, these numbers are from ChEMBL document CHEMBL1909294.

Where a SMILES comes first, the peptide text is derived from it. Bridges are numbered along the chain shown (N, C = ends). [ ]: non-standard residue; d: D form. The star is where a group is joined. Threoninol(2S,3R) = C[C@@H](O)[C@H](CO)N*
Parameter HepSE_hepatomegaly, tested on Hepatotoxicity, listed per item. Further: call rule not given here.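 Further: hepatic side effect score for hepatomegaly, taken from the training set of the DILIps drug-induced liver injury prediction system.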
No unit in the answer, only the number.

Solved entries:
Exercise: Would you mind telling me what HepSE_hepatomegaly value was observed for CC(=O)O[C@@]12CO[C@@H]1C[C@H](O)[C@@]1(C)C(=O)[C@H](O)C3=C(C)[C@@H](OC(=O)[C@H](O)[C@@H](NC(=O)OC(C)(C)C)c4ccccc4)C[C@@](O)([C@@H](OC(=O)c4ccccc4)[C@H]21)C3(C)C.O.O.O ?
Key: 0

Exercise: Please answer likewise for OC[C@H]1O[C@@H](O[C@@H]2[C@@H](CO)O[C@](O)(CO)[C@H]2O)[C@H](O)[C@@H](O)[C@H]1O
Key: 0

Exercise: Please answer likewise for C[C@@H](O)[C@H](CO)NC(=O)[C@@H]1CSSC[C@H](NC(=O)[C@H](N)Cc2ccccc2)C(=O)N[C@@H](Cc2ccccc2)C(=O)N[C@H](Cc2c[nH]c3ccccc23)C(=O)N[C@@H](CCCCN)C(=O)N[C@@H]([C@@H](C)O)C(=O)N1 (H-[dF]CF[dW]KTC-{Threoninol(2S,3R)}; disulfide 2-7)
Key: 0

Exercise: Please answer likewise for CNC1(c2ccccc2Cl)CCCCC1=O (stereo not given)
Key: 0

Next compound, please.
Exercise: Would you mind telling me what HepSE_hepatomegaly value was observed for CC(=O)NC[C@H]1CN(c2ccc(N3CCOCC3)c(F)c2)C(=O)O1 ?
Key: 0
